- System: human radical growth phase melanoma cell line (WM35)
- EXPERIMENTAL_DETAILS: MTT cytotoxicity assay, WM35
- Assay type: cell-based
- CONDITIONS_USED: WM35 cells, 48 h, MTT
- Description: Three cell lines were used to determine the cytotoxicity of the complexes, a human cervical carcinoma line (HeLa), a human radical growth phase melanoma cell line (WM35), and a normal fibroblastic epithelial cell line (HFL1) using the MTT method. […] The cytotoxicity assays were performed using the MTT assay (3-(4,5-dimethylthiazol-2-yl)-2,5-diphenyl tetrazolium bromide-Sigma Aldrich). […] The cellular viability was determined using the MTT assay at 24, 48, and 72 h, respectively. […]
MEASURE_NAME: IC50 (µM)
Answers are plain numbers, in µM.

Form: compound = N.N.[Cl][Pt][Cl] [Cisplatin, cisplatin, reference compound] ; IC50 = 11.2

====

- Tested on: normal fibroblastic epithelial cell line (HFL1)
- EXPERIMENTAL_DETAILS: MTT cytotoxicity assay, HFL1
- Assay type: cell-based
- CONDITIONS_USED: HFL1 cells, 24 h
MEASURE_NAME: IC50 (µM)
One number for each entry, in µM.

Form: compound = N.N.[Cl][Pt][Cl] [Cisplatin, cisplatin, reference compound] ; IC50 = 13.2

====

- Tested on: normal fibroblastic epithelial cell line (HFL1)
- EXPERIMENTAL_DETAILS: MTT cytotoxicity assay, HFL1
- Format: cell-based
- CONDITIONS_USED: HFL1 cells, 48 h
MEASURE_NAME: IC50 (µM)
One number for each entry, in µM.

Form: compound = N.N.[Cl][Pt][Cl] [Cisplatin, cisplatin, reference compound] ; IC50 = 3.99

====

- System: human radical growth phase melanoma cell line (WM35)
- EXPERIMENTAL_DETAILS: MTT cytotoxicity assay, WM35
- Format: cell-based
- CONDITIONS_USED: WM35 cells, 72 h, MTT
- Procedure: Three cell lines were used to determine the cytotoxicity of the complexes, a human cervical carcinoma line (HeLa), a human radical growth phase melanoma cell line (WM35), and a normal fibroblastic epithelial cell line (HFL1) using the MTT method. […] The cytotoxicity assays were performed using the MTT assay (3-(4,5-dimethylthiazol-2-yl)-2,5-diphenyl tetrazolium bromide-Sigma Aldrich). […] The cellular viability was determined using the MTT assay at 24, 48, and 72 h, respectively. […]
MEASURE_NAME: pIC50
Numbers only, as −log10 of the molar value.

Form: molecule = N.N.[Cl][Pt][Cl] [Cisplatin, cisplatin, reference compound] ; pIC50 = 5.22

====

- System: human cervical carcinoma line (HeLa)
- EXPERIMENTAL_DETAILS: MTT cytotoxicity assay, HeLa
- Type: cell-based
- CONDITIONS_USED: HeLa cells, 72 h
- Protocol: Three cell lines were used to determine the cytotoxicity of the complexes, a human cervical carcinoma line (HeLa), a human radical growth phase melanoma cell line (WM35), and a normal fibroblastic epithelial cell line (HFL1) using the MTT method. […] The cytotoxicity assays were performed using the MTT assay (3-(4,5-dimethylthiazol-2-yl)-2,5-diphenyl tetrazolium bromide-Sigma Aldrich). […] The cellular viability was determined using the MTT assay at 24, 48, and 72 h, respectively. […]
MEASURE_NAME: pIC50
Give bare numbers, as −log10 of the molar value.

For the compound N.N.[Cl][Pt][Cl] [Cisplatin, cisplatin, reference compound] , the measured pIC50 on human cervical carcinoma line (HeLa) was 5.62
